Here's a batch of compounds along with measured pIC50 for UniProtKB P56817.
pIC50: −log10 of the molar value.
measured_metric: pIC50

CCCN(CCC)C(=O)c1cc(C)cc(C(=O)N[C@@H](Cc2cc(F)cc(F)c2)[C@H](O)[C@H]2C[C@@H](Cc3cccc(OC)c3)CCN2)c1
6.48
CCCN(CCC)C(=O)c1cc(C)cc(C(=O)N[C@@H](Cc2cc(F)cc(F)c2)[C@H](O)[C@H]2C[C@@H](Cc3ccc(OC)cc3)CCN2)c1
6.36
CCCN(CCC)C(=O)c1cc(C)cc(C(=O)N[C@@H](Cc2cc(F)cc(F)c2)[C@H](O)[C@H]2C[C@@H](OCC3CC3)CCN2)c1
8.22

###

pIC50: −log10 of the molar value.
What follows is a collection of pIC50 values obtained with Beta-secretase 1 (Homo sapiens).
measured_metric: pIC50

CCC[C@H]1CCN[C@@H]([C@@H](O)[C@H](Cc2cc(F)cc(F)c2)NC(=O)c2cc(C)cc(C(=O)N(CCC)CCC)c2)C1
7.15
CCCN(CCC)C(=O)c1cc(C)cc(C(=O)N[C@@H](Cc2cc(F)cc(F)c2)[C@H](O)[C@H]2CCN2)c1
6.11
CCCN(CCC)C(=O)c1cc(C)cc(C(=O)N[C@@H](Cc2cc(F)cc(F)c2)[C@H](O)[C@H]2C[C@@H](O)CN2)c1
7.05
CCCN(CCC)C(=O)c1cc(C)cc(C(=O)N[C@@H](Cc2cc(F)cc(F)c2)[C@H](O)[C@H]2C[C@@H](OC(C)=O)CCN2)c1
5.70
CCCN(CCC)C(=O)c1cc(C)cc(C(=O)N[C@@H](Cc2cc(F)cc(F)c2)[C@H](O)[C@H]2C[C@@H](Cc3ccccc3OC)CCN2)c1
5.87
CCCCO[C@H]1CCN[C@@H]([C@@H](O)[C@H](Cc2cc(F)cc(F)c2)NC(=O)c2cc(C)cc(C(=O)N(CCC)CCC)c2)C1
8.15
CCCN(CCC)C(=O)c1cc(C)cc(C(=O)N[C@@H](Cc2cc(F)cc(F)c2)[C@H](O)[C@H]2C[C@@H](OC)CN2)c1
6.73

###

Target: Beta-secretase 1 (Homo sapiens, UniProt P56817)
Sequence (P56817 whole entry): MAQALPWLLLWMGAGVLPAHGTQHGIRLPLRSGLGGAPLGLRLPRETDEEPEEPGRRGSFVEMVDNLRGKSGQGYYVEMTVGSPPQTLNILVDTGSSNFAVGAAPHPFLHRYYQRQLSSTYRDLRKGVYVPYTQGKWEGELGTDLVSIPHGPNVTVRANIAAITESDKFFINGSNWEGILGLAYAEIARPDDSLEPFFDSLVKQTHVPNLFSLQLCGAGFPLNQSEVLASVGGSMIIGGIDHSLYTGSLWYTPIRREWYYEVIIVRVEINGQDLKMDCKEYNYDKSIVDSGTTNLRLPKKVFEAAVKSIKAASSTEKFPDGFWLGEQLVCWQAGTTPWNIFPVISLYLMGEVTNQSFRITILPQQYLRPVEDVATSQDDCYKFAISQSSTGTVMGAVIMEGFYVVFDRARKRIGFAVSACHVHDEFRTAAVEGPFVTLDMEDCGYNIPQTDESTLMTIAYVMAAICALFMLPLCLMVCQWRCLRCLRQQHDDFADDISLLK
Classification field. Basis: IC50. Definitions: L: < 600 nM; M: ≥ 600 nM and < 2000 nM; H: ≥ 2000 nM

CCCN(CCC)C(=O)c1cc(C)cc(C(=O)N[C@@H](Cc2cc(F)cc(F)c2)[C@H](O)[C@H]2C[C@@H](CCc3ccccc3)CCN2)c1
M
CCCN(CCC)C(=O)c1cc(C)cc(C(=O)N[C@@H](Cc2cc(F)cc(F)c2)[C@H](O)[C@H]2C[C@@H](O)CN2)c1
M
CCCCO[C@H]1CCN[C@@H]([C@@H](O)[C@H](Cc2cc(F)cc(F)c2)NC(=O)c2cc(C)cc(C(=O)N(CCC)CCC)c2)C1
L
CCCN(CCC)C(=O)c1cc(C)cc(C(=O)N[C@@H](Cc2cc(F)cc(F)c2)[C@H](O)[C@H]2C[C@@H](OCC3CC3)CCN2)c1
L
CCCN(CCC)C(=O)c1cc(C)cc(C(=O)N[C@@H](Cc2cc(F)cc(F)c2)[C@H](O)[C@H]2C[C@@H](OC)CN2)c1
M
CCCN(CCC)C(=O)c1cc(C)cc(C(=O)N[C@@H](Cc2cc(F)cc(F)c2)[C@H](O)[C@H]2CCCN2)c1
L
CCCN(CCC)C(=O)c1cc(C)cc(C(=O)N[C@@H](Cc2cc(F)cc(F)c2)[C@H](O)[C@H]2C[C@@H](OC(C)=O)CCN2)c1
H
CCCN(CCC)C(=O)c1cc(C)cc(C(=O)N[C@@H](Cc2cc(F)cc(F)c2)[C@H](O)[C@H]2C[C@@H](OCC3CCCCC3)CCN2)c1
L
CCCN(CCC)C(=O)c1cc(C)cc(C(=O)N[C@@H](Cc2cc(F)cc(F)c2)[C@H](O)[C@H]2CCN2)c1
H
CCCN(CCC)C(=O)c1cc(C)cc(C(=O)N[C@@H](Cc2cc(F)cc(F)c2)[C@H](O)[C@H]2C[C@@H](C3CCCCC3)CCN2)c1
H
